Source listed as patent US8093226B2.

- Test system: A549
- ASSAY_EXPLANATION: Test A: Cytostatic Cell Culture Assay (GI50), A549
- Assay type: cell-based
- STUDY_CONDITIONS: Homo sapiens, 120 h; A549 cells, 5 days, SRB; read-out: G150 Lung A549
- Excerpt: Test A: Cytostatic Cell Culture Assay (GI50) This assay is based on quantification of cell counts by a calorimetric detection of the cell associated proteins. The assay relies on the ability of sulforhodamine B (SRB) to bind to protein components of cells that have been fixed to tissue-culture plates by trichloroacetic acid (TCA). […] • 1. […] Measure the OD at 500 nm in a microplate reader. • 13. […]
PARAMETER_MEASURED: IC50

Query: Give measured IC50 for `OC[C@H]1O[C@@H](n2ccc3c(-c4ccc[nH]4)ncnc32)[C@H](O)[C@@H]1O` (A549).
Result: > 20 µM

Query: Give measured IC50 for `OC[C@H]1O[C@@H](n2ccc3c(Cc4ccccc4)ncnc32)[C@H](O)[C@@H]1O` (A549).
Result: > 20 µM

Query: Give measured IC50 for `OC[C@H]1O[C@@H](n2ccc3c(-c4ccc(F)cc4)ncnc32)[C@H](O)[C@@H]1O` (A549).
Result: > 20 µM

* * *

Exercise: state measured IC50 for each of the molecules provided.
- Tested on: HCT116
- ASSAY_EXPLANATION: Test A: Cytostatic Cell Culture Assay (GI50), HCT116
- Type: cell-based
- STUDY_CONDITIONS: Homo sapiens, HCT-116, 120 h; HCT116 cells, 5 days, SRB; read-out: G150 Colon HCT116

Query: State its IC50 for this molecule: `OC[C@H]1O[C@@H](n2cc(F)c3c(-c4ccccc4)ncnc32)[C@H](O)[C@@H]1O`
Result: > 20 µM

Query: State its IC50 for this molecule: `OC[C@H]1O[C@@H](n2ccc3c(-c4ccccn4)ncnc32)[C@H](O)[C@@H]1O`
Result: > 20 µM

Query: State its IC50 for this molecule: `OC[C@H]1O[C@@H](n2cc(F)c3c(-c4c[nH]cn4)ncnc32)[C@H](O)[C@@H]1O`
Result: > 20 µM

Query: State its IC50 for this molecule: `OC[C@H]1O[C@@H](n2ccc3c(-c4ccc(F)cc4)ncnc32)[C@H](O)[C@@H]1O`
Result: > 20 µM
